The measured values listed here are drawn from ChEMBL document CHEMBL1157845.

Tested on: Micrococcus luteus
assay_notes: Antibacterial activity against Micrococcus luteus ATCC 10240
Type: functional, organism-based
Calls of active or inactive are those of the source. The rule behind the calls is not given here.
experimental_endpoint: Activity

>>> result("O=C(OCc1ccccc1)c1coc(-c2ccccc2OCc2ccccc2)n1")
"inactive"
>>> result("O=C(OCc1ccccc1)[C@@H]1COC(c2ccccc2)=N1")
"inactive"
>>> result("O=C(OCc1ccccc1)[C@@H]1COC(c2ccc(F)c([N+](=O)[O-])c2)=N1")
"inactive"

###

Test system: Mycobacterium tuberculosis
assay_notes: Antimycobacterial activity against Mycobacterium tuberculosis H37Rv ATCC 27294 in GAST medium after 1 week by microplate alamar blue assay
Format: functional
run_conditions: H37Rv ATCC 27294, 168 h
Field: log10 of MIC. Provide a value for each of the molecules that follow.
// units: µM (pre-log); metric: MIC; scale: log10

Challenge: State the recorded log10 of MIC for this entry: "O=C(OCc1ccccc1)c1coc(-c2cccnc2Oc2ccccc2)n1"
Response given: 1.96

Challenge: If you can, please state the reported log10 of MIC value of "Cc1oc(-c2ccccc2)nc1C(=O)OCc1ccccc1" .
Response given: 1.18

Challenge: I'd like to know its log10 of MIC. The molecule in question is "O=C(OCc1ccccc1)c1coc(-c2ccccc2OCc2ccccc2)n1"
Response given: 1.01

Challenge: Data request, read-out log10 of MIC, for "O=C(OCc1ccccc1)c1coc(-c2cccc(F)c2)n1"
Response given: 0.15

Challenge: May I ask what log10 of MIC has been recorded for "O=C(OCc1ccccc1)[C@@H]1COC(c2cccc(Cl)c2)=N1" ?
Response given: 0.26

Challenge: # query: log10 of MIC of entry "O=C(OCc1ccccc1)[C@@H]1COC(c2cncc(-c3ccccc3)c2)=N1"
Response given: 1.47

Challenge: log10 of MIC for "CCOc1ccc(C2=N[C@H](C(=O)OCc3ccccc3)CO2)cc1F" ?
Response given: 0.59

Challenge: Can you look up the measured log10 of MIC of "N#Cc1cccc(C2=N[C@H](C(=O)OCc3ccccc3)CO2)c1" for me?
Response given: 1.88

Challenge: What log10 of MIC value was documented for this molecule, "O=C(OCc1ccccc1)c1coc(-c2ccc([N+](=O)[O-])c(F)c2)n1" ?
Response given: 0.42

Challenge: Tell me the measured log10 of MIC of "O=C(OCc1ccccc1)[C@@H]1COC(c2ccccc2)=N1" , please.
Response given: 0.65

Challenge: Request the reported log10 of MIC associated with "O=C(OCc1ccccc1)[C@@H]1COC(c2cncc(Br)c2)=N1"
Response given: 1.42

Challenge: I have this molecule here, "COc1ccc(C2=N[C@H](C(=O)OCc3ccccc3)CO2)cc1OC" , and I need its recorded log10 of MIC.
Response given: 1.33

Challenge: Look up log10 of MIC for this molecule: "CCCCOc1ccc(-c2nc(C(=O)OCc3ccccc3)co2)cc1"
Response given: 0.58

Challenge: log10 of MIC for "COc1ccc(C2=N[C@H](C(=O)OCc3ccccc3)CO2)cc1" ?
Response given: 0.36

Challenge: If you can, please state the reported log10 of MIC value of "O=C(OCc1ccccc1)[C@@H]1COC(c2cccnc2Sc2ccccc2)=N1" .
Response given: 1.13

Challenge: I would be grateful if you could share the reported log10 of MIC for "O=C(OCc1ccccc1)c1coc(-c2ccccc2P(=O)(c2ccccc2)c2ccccc2)n1" .
Response given: 1.79

Challenge: Looking for the measured log10 of MIC of "O=C(OCc1ccccc1)c1coc(-c2ccc(Cl)c(F)c2)n1" , can you help?
Response given: 1.35

Challenge: Query: log10 of MIC; subject: "O=C(OCc1ccccc1)c1coc(-c2ccccc2Cl)n1"
Response given: 0.23

Challenge: Quick check: log10 of MIC of "Cc1ccc(C2=N[C@H](C(=O)OCc3ccccc3)CO2)cc1" ?
Response given: 1.44
